- systemUnderTest: human CTPS1 (Homo sapiens (Human))
- Sequence (P17812 whole entry): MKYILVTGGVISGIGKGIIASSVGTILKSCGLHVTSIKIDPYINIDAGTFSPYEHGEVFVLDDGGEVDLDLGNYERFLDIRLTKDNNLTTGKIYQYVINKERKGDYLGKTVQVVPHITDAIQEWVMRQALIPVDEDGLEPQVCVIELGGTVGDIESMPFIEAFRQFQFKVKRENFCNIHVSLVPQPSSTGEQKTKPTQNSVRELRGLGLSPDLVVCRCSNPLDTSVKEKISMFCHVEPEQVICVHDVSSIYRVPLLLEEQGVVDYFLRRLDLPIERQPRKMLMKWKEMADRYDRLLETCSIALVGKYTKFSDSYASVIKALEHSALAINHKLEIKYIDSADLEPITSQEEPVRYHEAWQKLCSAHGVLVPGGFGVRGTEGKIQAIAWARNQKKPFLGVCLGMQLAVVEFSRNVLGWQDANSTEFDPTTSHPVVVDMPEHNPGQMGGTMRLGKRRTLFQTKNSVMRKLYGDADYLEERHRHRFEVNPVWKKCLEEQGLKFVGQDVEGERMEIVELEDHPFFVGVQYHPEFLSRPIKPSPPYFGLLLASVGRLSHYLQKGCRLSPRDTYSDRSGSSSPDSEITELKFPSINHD
recordedEndpoint: IC50

CCOc1cncc(-c2ccc(NC(=O)Cc3cc(NS(=O)(=O)C4CC4)ccn3)nc2)n1 [I-40]: < 100 nM
CCOc1cncc(-c2cnc(C(=O)N[C@@H](c3cc(NS(=O)(=O)C4CC4)ccn3)[C@H]3C[C@H](N(C)C)C3)s2)n1 (single isomer, unassigned) [I-107]: < 100 nM
CCOc1cncc(-c2cnc(C(=O)N[C@H](c3cc(NS(=O)(=O)C4CC4)ccn3)[C@H]3C[C@@H](N(C)C)C3)s2)n1 (single isomer, unassigned) [I-105]: < 100 nM

Input: Provide measured IC50 value, entry: CCOc1cncc(-c2cnc(C(=O)N[C@H](C)c3cccc(NS(=O)(=O)C(F)F)c3)s2)n1 [I-272]
Output: < 100 nM

Input: Give IC50 for the following compound: CCOc1cncc(-c2ccc(NC(=O)C(NC(=O)CCOCCNC(=O)OC(C)(C)C)c3csc(NS(=O)(=O)C4CC4)n3)cc2)n1 (stereo not shown) [Z-7]
Output: < 100 nM

Input: Read the entry CCOc1cncc(-c2cnc(C(=O)NC(CCN(C)C)c3cccc(NS(=O)(=O)C4CC4)c3)s2)n1 (stereo not shown) [I-152] and write its reported IC50.
Output: < 100 nM

Input: Give the reported value of IC50 for this record: CCOc1cncc(-c2ccc(C(=O)NCc3ccnc(NS(=O)(=O)C4CC4)c3)cc2)n1 [I-17]
Output: 100 to 1000 nM

Input: Tell me its IC50 given CCOc1cncc(-c2cnc(C(=O)N[C@@H](CCCN(C)C)c3cc(NS(=O)(=O)C4CC4)ccn3)s2)n1 [I-155] as the entry.
Output: < 100 nM

Input: Please indicate IC50 recorded for CCOc1cncc(-c2cnc(C(=O)N3CCNC[C@H]3c3ccnc(NS(=O)(=O)C4CC4)n3)s2)n1 [I-168]
Output: 100 to 1000 nM

Input: Write down IC50 measured for item CCOc1cncc(-c2cnc(C(=O)N[C@H](c3cc(NS(=O)(=O)C4CC4)ccn3)C3CCN(C)CC3)s2)n1 [I-148]
Output: < 100 nM

Input: State, in one line, measured IC50 of CCOc1cncc(-c2cnc(C(=O)N[C@@H](CN3[C@@H]4COC[C@H]3C4)c3cc(NS(=O)(=O)C4CC4)ccn3)s2)n1 [I-114]
Output: < 100 nM
